Test system: HCT-116
procedure_text: NCI tumour cell line growth inhibition, 48 h
The source made the active and inactive calls. No stated cut-off is given here; in the data, active = GI50 up to about 1.1 µM and inactive = higher.
Choose the fitting class; nothing outside active, inactive is accepted.

>>> df
                                   molecule  assigned_class
0              N#CC(C#N)=NNc1ccc2cn[nH]c2c1        inactive
1  C=CC(=C)CCC(Br)C(C)(C)Cl (stereo not drawn)        inactive
2                       Nc1ncnc2c1ncn2CCCNO        inactive
3  CC1CC[C@@]23CCC4(C)[C@@](C=CC5[C@@]6(C)CCC(=O)C(C)(C)C6CC[C@]54C)(OC2=O)[C@@H]3[C@H]1C (stereo partly drawn)        inactive
4  COC(=O)CC1C[C@H](C#N)N(C(=O)c2ccccc2)C[C@@H]1CC[N+](=O)[O-] (stereo partly drawn)        inactive

Could you check what this test reported for Nc1ccc(S(=O)(=O)Nc2cnc3c(Cl)cccc3n2)cc1 [CHLORSULFAQUINOXALINE] ? inactive

Could you check what this test reported for CCOC(=O)c1ccc(N2C(=O)Cc3ccccc3C2=O)cc1 ? inactive

----------
GI50: recorded values
Tested on: TK-10
procedure_text: NCI tumour cell line growth inhibition, 48 h
The source made the active and inactive calls. Rule as the data show it: active = GI50 up to about 1.1 µM and inactive = higher.

Previously resolved entries follow.
molecule	metric_name	result
O=C(Nc1ccn(CCO)c(=O)n1)c1ccccc1	GI50	> 100 µM (inactive)
Cc1ccc([N+](=O)[O-])cc1S(=O)(=O)Nc1ccc(C(=O)/C=C/c2cccs2)cc1	GI50	56.2 µM (inactive)
CC1(C)CCOC(Sc2ccccc2)C1 (stereo unspecified)	GI50	> 100 µM (inactive)
CC1(C)CC(=O)C(=[N+]=[N-])C(=O)C1	GI50	> 100 µM (inactive)
N#Cc1nc(C(F)(F)F)oc1N	GI50	> 100 µM (inactive)

Which GI50 is reported for this molecule? COc1ccccc1NC(=O)C1=C(C)NC(C)=C(C(=O)Nc2ccccc2OC)C1c1ccccc1OC > 100 µM (inactive)

Which GI50 is reported for this molecule? CC1C2(C)OC(=N)C(C#N)(C(c3ccccc3)O2)C1(C#N)C#N (stereo unspecified) 36 µM (inactive)

Which GI50 is reported for this molecule? Nc1nc(N)c(NC(=O)CCCO)c(=O)[nH]1 > 100 µM (inactive)

Which GI50 is reported for this molecule? NC(=O)c1ccc(Cl)c([N+](=O)[O-])c1 > 100 µM (inactive)

Which GI50 is reported for this molecule? CN(C)CCNc1ccc2ncn3c4ccccc4c(=O)c1c23 2.93 µM (inactive)

Which GI50 is reported for this molecule? COC(=O)C1C(=O)N(CCc2c[nH]c3ccccc23)C[C@@H]2CCC(=O)C[C@H]12 (stereo partly specified) > 100 µM (inactive)

Which GI50 is reported for this molecule? C[C@]12CCC(O)CC1=CC[C@@H]1[C@@H]2CC[C@]2(C)C(=O)[C@H](n3ccnc3)C[C@@H]12 (stereo partly specified) > 100 µM (inactive)

----------
System: Malme-3M
procedure_text: NCI tumour cell line growth inhibition, 48 h
Active and inactive are the calls of the source. Rule as the data show it: active = GI50 up to about 1.1 µM and inactive = higher.
Choose the fitting class; nothing outside active, inactive is accepted.

In [3]: df
Out[3]:
                                   molecule  assigned_class
0  OC1CCC(COC(c2ccccc2)(c2ccccc2)c2ccccc2)O1 (stereo unspecified)        inactive
1  CCOC(=O)NC(Nc1ccc(S(=O)(=O)Nc2ccc(OC)nn2)cc1)(C(F)(F)F)C(F)(F)F        inactive
2  CCOC(=O)Nc1cc2c(c(N)n1)N=C(c1ccc(OC)cc1)CN2          active
3  C/C=C\C(CC(=O)OC)CC(=O)N(CCC1CN(S(=O)(=O)C(F)(F)F)c2ccccc21)Cc1ccc(OC)cc1OC (stereo unspecified)        inactive
4  COc1ccc2nc3cc(Cl)ccc3c(Sc3ccc(NC(C)=O)cc3)c2c1        inactive

# evaluate next
Could you check what this test reported for C=CCO/N=C(\OC(=O)c1ccc([N+](=O)[O-])cc1)c1ccccc1 ? inactive

Origin of values: ChEMBL document CHEMBL1201862
